# Tested on: ADP-Induced Platelet Aggregation
# assaySummary: Inhibition of ADP-induced platelet aggregation in rabbit platelet-rich plasma (microplate method)
# Format: cell-based
# experimentalParameters: Oryctolagus cuniculus, Platelet; rabbit PRP, inducer ADP, absorbance 655 nm; read-out: IC50 (Mean ± SE), ADP-induced platelet aggregation
assayMetric: IC50 (µM)

The cases that follow already have their IC50 on record.
Problem: Data request, read-out IC50, for CCOC(=O)c1c(C)nc(-c2cccc(C#N)c2)n1OCc1ccccc1 [LY-26k]
Result: 5.93

Problem: Data request, read-out IC50, for COn1c(-c2cccc(C#N)c2)nc(C)c1C(=O)O [LY-27a]
Result: 7.99

Problem: Data request, read-out IC50, for CCOC(=O)c1c(C)nc(-c2cccc(C#N)c2)n1OCc1ccccc1F [LY-26l]
Result: 5.88

(P) CCOC(=O)c1c(C)nc(-c2cccc(C#N)c2)n1OCc1ccc(C)cc1 [LY-26s]
(Q) CCOC(=O)c1c(C)nc(-c2cccc(C#N)c2)n1OCc1ccc(C(=O)OC)cc1 [LY-26u]
Problem: Lower value for measured IC50? Options: P , Q Lab log: write the label of the selected item as the result.
Result: P
(P: 6.31 µM, Q: 9.47 µM)
